# Test system: UACC-62 melanoma
# Assay Overview: NCI tumour cell line growth inhibition, 48 h; in the data active means GI50 below about 0.43 µM; inactive means the rest
Form entry, call: pick from YES = active, NO = inactive

// below: answered compounds
Cc1c(C(=O)O[C@H]2[C@@H]3[C@H](C)CC[C@H]3[C@]3(C)O[C@@]2(C2CCCCC2)C[C@H]3OC(=O)CO)ccc2ccccc12; NO
Nc1c(C(=O)Nc2cccc(Br)c2)sc2nc3c(cc12)C(O)CCC3 (stereo unspecified); YES

Lookup: What did the test return for CC1(C)[C@@H](OC(N)=O)C=C[C@]2(C=O)[C@H]3CC[C@]4(C)[C@@H](c5ccc(=O)oc5)[C@@H](Cl)C[C@]4(O)C3=CC[C@@H]12 ?
Found: YES

Lookup: How about CCOC(=S)SCN1C(=O)c2ccccc2S1(=O)=O ?
Found: NO

Lookup: // query: O=S(=O)(O)ONC1=NCCN1
Found: NO

Lookup: How about this compound: O=C(Nc1ccc(I)cc1F)c1cc(I)ccc1O
Found: YES

====

Listing of recorded TGI by entry.
# System: CAKI-1 renal
# Assay Overview: NCI tumour cell line growth inhibition, 48 h

COc1cc(C=O)cc(C=Nc2ccc(S(N)(=O)=O)cc2)c1O; 49.3 µM
CC(C)(C)OC(=O)N1N=NC2C3OC(CC3=O)C21 (configuration not stated); > 100 µM

Here is another compound to look at.
Lookup: What does the data say about its TGI? Entry: O=C1c2ccn(CCCCN3CCC(O)CC3)c2C(=O)c2c1c(O)c1ccccc1c2O
Found: 43.7 µM

====

# Test system: HCC-2998 colon
# Assay Overview: NCI tumour cell line growth inhibition, 48 h
// reported TGI per item
The reply should be a number in µM, with the unit left off.

Below are worked cases with known answers.
CC[C@H](C)C1=C(OC(C)=O)[N@+]2([O-])Oc3ccc(-c4c(OC(C)=O)c(OC(C)=O)c(-c5ccc(OC(C)=O)cc5)c(OC(C)=O)c4OC(C)=O)cc3O[C@]2([C@@H](C)CC)C(=O)N1OC(C)=O; 0.031
Nc1c(-c2nc3ccccc3[nH]2)sc(=S)n1-c1ccc(Cl)cc1; 48.8
CN(C)c1ccc(/C=c2/c3cc([N+](=O)[O-])ccc3n3c2cc(-c2ccccc2)[n+]3C)cc1; 7.55
COc1ccc(-c2c(N)n[nH]c2-c2cc(OC)c(OC)c(OC)c2)cc1; 19.8

Lookup: Given the compound O=C1c2cc([N+](=O)[O-])sc2C(=O)c2ccsc21 , what is its reported TGI?
Found: 1.7

Lookup: Same question for O=C(CCl)Nc1cc(O)c2c(c1)C(=O)c1cccc(O)c1C2=O please.
Found: 3.4

Lookup: What do we get for CN1CCN(CCOc2ccc(-c3cnc4c(-c5ccc(F)cc5)cnn4c3)cc2)CC1 ?
Found: 3.45

Lookup: Ok, now CCOC(=O)CC[C@H](N)C(=O)N[C@H](Cc1ccc(N(CCCl)CCCl)cc1)C(=O)OCC
Found: 6.21

====

# Tested on: HS 578T breast
# Assay Overview: NCI tumour cell line growth inhibition, 48 h; in the data active = GI50 below about 0.43 µM; inactive = the rest
Give your call using only these classes: yes (1) for active, no (0) for inactive

Past entries and their recorded results:
O=C(NCCCCOCC#Cc1ccccc1C#CCS(=O)(=O)c1ccccc1)c1cc2ccccc2[nH]1; no (0)
CCCn1c(N)c(C(=O)CNc2ccc(I)cc2)c(=O)[nH]c1=O; no (0)
CCOc1cc(C(C)(C)C)ccc1C1=N[C@@](C)(c2ccc(Cl)cc2)[C@@](C)(c2ccc(Cl)cc2)N1C(=O)N1CCN(CCS(C)(=O)=O)CC1; no (0)
COc1cc(-c2nn(-c3ccc(NC(=O)c4cc(Cl)cc(Cl)c4)cc3)cc2-c2ccncc2)ccc1Cl; no (0)
O=S(=O)(O)ONC1=NCCN1; no (0)

Lookup: Tell me the assay call for ClCC#CCSc1ncnc2c1ncn2CC#CCCl please.
Found: no (0)

Lookup: Same thing, different molecule: C=CCCC(=O)N1C=CC(=O)[C@H](O)[C@@H]1/C=C/c1ccccc1
Found: no (0)

Lookup: Now this one: Oc1ccc(Cl)cc1-c1cc(-c2ccc(F)cc2)n[nH]1
Found: no (0)

Lookup: Note, next up: Cc1sc2ncn(Cc3ccc(Cl)c(Cl)c3)c(=O)c2c1C
Found: no (0)

Lookup: # repeat for COc1ccc(NC(=O)/C=C(C)/C=C/C=C(C)\C=C\C2=C(C)CCCC2(C)C)cc1
Found: no (0)

Lookup: Lookup CCOC(=O)c1ccccc1-c1c2ccc(=[N+](C)C)cc-2oc2cc(N(C)C)ccc12
Found: no (0)

Lookup: Try O=[As]c1ccc(C(=O)c2ccc(Oc3ccccc3)cc2)cc1 (centres undefined) next.
Found: yes (1)

Lookup: // next record CCOC(=S)SCN1C(=O)c2ccccc2S1(=O)=O
Found: no (0)

====

# Tested on: MOLT-4 leukemia
# Assay Overview: NCI tumour cell line growth inhibition, 48 h
Mark condition not met for TGI values under 9 µM, and condition met for everything at or above.

Look over these answered cases.
COc1ccc2nc3cccc(C(=O)NCCN(C)C)c3nc2c1; condition not met
Cn1ncc(-c2ccc3c(=O)[nH]nc(CN)c3c2)c1-c1c(F)cc2ccccc2c1C#N; condition met
CN(C)CCNc1nc2c(no[n+]2[O-])c2ccccc12; condition met

Lookup: Is TGI for COc1ccc2c(c1)OCCC1=C2SCC2(C)CCN=C12 (stereo unspecified) at or above 9 µM?
Found: condition met

Lookup: # repeat for Cc1ccc(S(=O)OC23CC4CC(CC(C4)C2)C3)cc1 (stereo unspecified)
Found: condition met

Lookup: Quick one: CC(/C=N/NC1=NCCCN1)=N\NC1=NCCCN1
Found: condition met

Lookup: Continue with CSC1=C(C(=O)Nc2ccccc2)C(N)=NC1=O
Found: condition met

Lookup: Try this compound too: COc1ccc(C2C(Cl)C(=O)N2NC(=O)Cc2ccccc2)cc1OC (stereo unspecified)
Found: condition met

Lookup: Moving on to O=C(Nc1ccc(I)cc1F)c1cc(I)ccc1O
Found: condition not met

Lookup: How about Nc1nc(N)c(-c2ccccc2)c(CCC(=O)Nc2ccc(Cl)cc2)n1 ?
Found: condition met

====

# Test system: SK-OV-3 ovarian
# Assay Overview: NCI tumour cell line growth inhibition, 48 h
Reported TGI values for the following compounds.

O=S(=O)(O)ONC1=NCCN1; > 100 µM
Cc1ncc([N+](=O)[O-])n1CCNC(=O)CCCCCn1ccnc1[N+](=O)[O-]; > 100 µM
CCCC1(N)CC(OC)OC(C)C1O (stereo unspecified); > 100 µM
Oc1ccc(Cl)cc1-c1cc(-c2ccc(F)cc2)n[nH]1; 5.21 µM
C=CCCC(=O)N1C=CC(=O)[C@H](O)[C@@H]1/C=C/c1ccccc1; > 32.5 µM

Lookup: Consider the compound CN(C)c1ccc(/C=c2/c3cc([N+](=O)[O-])ccc3n3c2cc(-c2ccccc2)[n+]3C)cc1 and give its measured TGI.
Found: 11.3 µM

Lookup: Request: CCCn1c(N)c(C(=O)CNc2ccc(I)cc2)c(=O)[nH]c1=O
Found: > 100 µM

Lookup: Item: NCP(=O)(O)OCC(=O)O
Found: > 100 µM

Lookup: Then what about the compound CC1=CC(=O)/C(=C/n2c(=S)[nH]c3ccccc32)C(=O)O1 ?
Found: > 100 µM

Lookup: Request: CCN1CCNc2c3cc(OC)ccc3nc3c([N+](=O)[O-])ccc1c23
Found: > 10 µM

Lookup: Param item: COc1ccc2c(c1)OCCC1=C2SCC2(C)CCN=C12 (stereo unspecified)
Found: > 100 µM

====

List of GI50 values.
# System: MOLT-4 leukemia
# Assay Overview: NCI tumour cell line growth inhibition, 48 h

Worked set:
COc1ccc2c(c1)CC[C@@H]1[C@@H]2CC[C@]2(C)C=C(/C=C/C(=O)c3ccccc3)C[C@@H]12; 16.5 µM
Cn1ncc(-c2ccc3c(=O)[nH]nc(CN)c3c2)c1-c1c(F)cc2ccccc2c1C#N; 2.29 µM
N#Cc1cccc(OCc2ccccc2COc2cccc(C#N)c2)c1; > 100 µM

Kindly consider the entry below.
Lookup: Which GI50 reading was recorded for the compound Cc1c(C(=O)O[C@H]2[C@@H]3[C@H](C)CC[C@H]3[C@]3(C)O[C@@]2(C2CCCCC2)C[C@H]3OC(=O)CO)ccc2ccccc12 ?
Found: 7.15 µM

====

# Test system: HL-60(TB) leukemia
# Assay Overview: NCI tumour cell line growth inhibition, 48 h; in the data active = GI50 below about 0.43 µM; inactive = the rest
// classify into active, inactive

Lookup: // outcome(item) with item = Cc1sc2ncn(Cc3ccc(Cl)c(Cl)c3)c(=O)c2c1C
Found: inactive

Lookup: Okay, and O=[N+]([O-])c1cc(F)c2cccnc2c1O ?
Found: inactive

====

# Test system: NCI-H226 lung
# Assay Overview: NCI tumour cell line growth inhibition, 48 h
Measured Attribute: TGI

Use the examples below as a reference point.
O=C(Nc1ccc(I)cc1F)c1cc(I)ccc1O; 6.11 µM
C=CCC(CNC(=O)OCc1ccccc1)OC(=O)OCc1ccccc1 (stereo not drawn); > 100 µM
COc1cc([C@@H]2c3cc4c(cc3C(OC3O[C@@H]5COC(C)O[C@H]5[C@H](O)[C@H]3O)C3COC(=O)[C@@H]32)OCO4)cc(OC)c1O (stereo partly drawn); 7.25 µM

Lookup: Which TGI value is on record for Cc1cccc(NC2=NCCO2)c1Cl ?
Found: > 100 µM

Lookup: Try this compound too: OC(CN1CCCCC1)c1ccc(/C=C/c2ccc(Cl)cc2)cc1 (stereo not drawn)
Found: > 100 µM

Lookup: Let us now turn to Oc1ccc(Cl)cc1-c1cc(-c2ccc(F)cc2)n[nH]1
Found: 12.9 µM

Lookup: Next record, please: C[N+](C)(N)c1nc(N)c(C#N)c(C#N)c1C#N
Found: > 10 µM

Lookup: Same thing, different compound: O=C(Oc1cccc(Cl)c1)c1cc2cc(CCl)ccc2oc1=O
Found: > 100 µM

Lookup: Ok, now CC(=O)N(CN1C(=O)CCC1C(=O)O)c1ccccc1Cl (stereo not drawn)
Found: > 100 µM

Lookup: And what about the compound Oc1c(CN2CCOCC2)cc(COCc2ccccc2)c2cccnc12 ?
Found: 36.8 µM
